# System: E. coli enterotoxigenic
# Assay notes: Disc diffusion, zones of inhibition in culture medium
# Type: cell-based, Escherichia coli
# Measurement conditions: C = E. coli enterotoxigenic, average of four repetitions
Reported property: Zones of inhibition (mm)

compound=COC(=O)[C@H]1OC(=O)C[C@]1(O)C(=O)OC subject_of_test="E. coli enterotoxigenic" reported_property="Zones of inhibition" result_value=8
compound=COC(=O)[C@@]1(O)CC(=O)O[C@@H]1C(=O)O subject_of_test="E. coli enterotoxigenic" reported_property="Zones of inhibition" result_value=10
compound=CCOC(=O)[C@H]1OC(=O)C[C@]1(O)C(=O)OCC subject_of_test="E. coli enterotoxigenic" reported_property="Zones of inhibition" result_value=6
compound=CCOC(=O)[C@@]1(O)CC(=O)O[C@@H]1C(=O)O subject_of_test="E. coli enterotoxigenic" reported_property="Zones of inhibition" result_value=6
compound="CCOC(=O)C[C@](O)(C(=O)OCC)[C@@H](O)C(=O)OCC [Compound 6, tri-ethyl ester of hydroxycitric acid]" subject_of_test="E. coli enterotoxigenic" reported_property="Zones of inhibition" result_value=5
compound=O=C1C[C@](O)(C(=O)O)[C@@H](C(=O)O)O1 subject_of_test="E. coli enterotoxigenic" reported_property="Zones of inhibition" result_value=10
